These entries and their values trace back to paper PMC8518391.

# target.or.system: hMAO A (Homo sapiens)
# Sequence (P21397 1-527): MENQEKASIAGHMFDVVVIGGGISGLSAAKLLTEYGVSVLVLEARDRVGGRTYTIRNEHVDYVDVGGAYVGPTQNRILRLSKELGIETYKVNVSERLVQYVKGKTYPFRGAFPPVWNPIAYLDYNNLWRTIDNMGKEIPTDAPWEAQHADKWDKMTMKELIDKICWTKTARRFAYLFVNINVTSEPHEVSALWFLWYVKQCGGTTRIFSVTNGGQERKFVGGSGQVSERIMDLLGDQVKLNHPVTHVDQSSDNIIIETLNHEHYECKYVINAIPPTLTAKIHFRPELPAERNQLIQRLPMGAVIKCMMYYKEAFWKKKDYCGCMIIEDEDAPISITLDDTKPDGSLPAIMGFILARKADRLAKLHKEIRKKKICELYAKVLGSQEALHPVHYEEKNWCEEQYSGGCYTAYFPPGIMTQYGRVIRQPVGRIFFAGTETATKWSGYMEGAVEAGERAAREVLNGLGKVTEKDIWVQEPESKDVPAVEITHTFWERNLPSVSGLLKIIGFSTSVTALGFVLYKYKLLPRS
measurement.label: IC50 (µM)

[
  {
    "entry.smiles": "N#Cc1ccc(-c2ccc(/C=N/c3ccc(O)cc3Cl)o2)cc1",
    "obs.value": 3.46
  },
  {
    "entry.smiles": "N#Cc1ccc(-c2ccc(C=NNC(=O)Cc3ccccc3)o2)cc1",
    "obs.value": 5.51
  },
  {
    "entry.smiles": "O=C(N/N=C/c1ccc(-c2ccc([N+](=O)[O-])cc2)o1)c1ccncc1",
    "obs.value": 7.89
  },
  {
    "entry.smiles": "N#Cc1ccc(-c2ccc(/C=N/NC(=O)c3ccncc3)o2)cc1",
    "obs.value": 6.62
  },
  {
    "entry.smiles": "N#Cc1ccc(-c2ccc(C=NNC(=O)c3cccs3)o2)cc1",
    "obs.value": 1.46
  },
  {
    "entry.smiles": "N#Cc1ccc(-c2ccc(/C=N/Nc3ccc(S(N)(=O)=O)cc3)o2)cc1",
    "obs.value": 10
  },
  {
    "entry.smiles": "CN1CCN(N=Cc2ccc(-c3ccc([N+](=O)[O-])cc3)o2)CC1",
    "obs.value": 5.61
  },
  {
    "entry.smiles": "CC(=O)NN=Cc1ccc(-c2ccc(C#N)cc2)o1",
    "obs.value": 4.25
  }
]

----------
Let's go through some IC50 measurements on hAChE (Homo sapiens) together.
Sequence (P22303 32-614): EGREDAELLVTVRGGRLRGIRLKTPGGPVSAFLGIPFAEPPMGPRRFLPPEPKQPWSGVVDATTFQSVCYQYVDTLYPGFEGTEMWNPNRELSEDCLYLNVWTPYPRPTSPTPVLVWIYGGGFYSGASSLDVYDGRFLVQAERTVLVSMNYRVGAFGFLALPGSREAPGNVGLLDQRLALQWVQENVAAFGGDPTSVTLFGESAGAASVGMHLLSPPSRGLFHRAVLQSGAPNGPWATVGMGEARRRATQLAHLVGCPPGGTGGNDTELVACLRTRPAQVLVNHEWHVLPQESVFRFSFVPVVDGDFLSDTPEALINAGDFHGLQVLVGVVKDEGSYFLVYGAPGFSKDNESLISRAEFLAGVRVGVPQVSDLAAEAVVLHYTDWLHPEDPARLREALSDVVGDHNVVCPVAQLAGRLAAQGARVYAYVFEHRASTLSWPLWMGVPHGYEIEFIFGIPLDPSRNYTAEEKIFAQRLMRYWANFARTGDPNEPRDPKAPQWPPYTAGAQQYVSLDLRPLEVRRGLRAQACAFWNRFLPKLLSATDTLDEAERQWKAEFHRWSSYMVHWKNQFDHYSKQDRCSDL

[
  {
    "entry.smiles": "O=C(N/N=C/c1ccco1)c1cccs1",
    "IC50 [µM]": 7.18
  },
  {
    "entry.smiles": "COc1cccc(/C=N/NC(=O)c2ccncc2)c1",
    "IC50 [µM]": 11.2
  },
  {
    "entry.smiles": "COc1cccc(C=NNc2ccc(S(N)(=O)=O)cc2)c1",
    "IC50 [µM]": 10.2
  },
  {
    "entry.smiles": "O=C1CN(/N=C/c2ccco2)C(=O)N1",
    "IC50 [µM]": 9.06
  },
  {
    "entry.smiles": "N#Cc1ccc(-c2ccc(/C=N/Nc3ccc(S(N)(=O)=O)cc3)o2)cc1",
    "IC50 [µM]": 1.67
  }
]

----------
# target.or.system: hMAO B (Homo sapiens, UniProt P27338)
# Construct: purchased Sigma Aldrich
# assay.summary: biochemical
# Type: biochemical
# assay.setup: read-out: % inhibition at 10 μM hMAO B
The following compounds are listed with their measured inhibition at 10 µM values.

[
  {
    "compound": "COc1cc(C=NN2CC(=O)NC2=O)cc(OC)c1OC [Compound 21]",
    "target.or.system": "hMAO B (Homo sapiens, UniProt P27338)",
    "inhibition at 10 µM, %": 18
  },
  {
    "compound": "COc1ccc(N/N=C/c2ccc(-c3ccc(C#N)cc3)o2)cc1 [Compound 10]",
    "target.or.system": "hMAO B (Homo sapiens, UniProt P27338)",
    "inhibition at 10 µM, %": 29
  },
  {
    "compound": "NS(=O)(=O)c1ccc(NN=Cc2ccco2)cc1 [Compound 18]",
    "target.or.system": "hMAO B (Homo sapiens, UniProt P27338)",
    "inhibition at 10 µM, %": 21
  },
  {
    "compound": "O=C(N/N=C/c1ccco1)c1cccs1 [Compound 15]",
    "target.or.system": "hMAO B (Homo sapiens, UniProt P27338)",
    "inhibition at 10 µM, %": 13
  },
  {
    "compound": "O=C(Cc1ccccc1)NN=Cc1ccco1 [Compound 17]",
    "target.or.system": "hMAO B (Homo sapiens, UniProt P27338)",
    "inhibition at 10 µM, %": 22
  }
]

----------
# target.or.system: hMAO B (Homo sapiens, UniProt P27338)
# Construct: purchased Sigma Aldrich
# Sequence (P27338 1-520): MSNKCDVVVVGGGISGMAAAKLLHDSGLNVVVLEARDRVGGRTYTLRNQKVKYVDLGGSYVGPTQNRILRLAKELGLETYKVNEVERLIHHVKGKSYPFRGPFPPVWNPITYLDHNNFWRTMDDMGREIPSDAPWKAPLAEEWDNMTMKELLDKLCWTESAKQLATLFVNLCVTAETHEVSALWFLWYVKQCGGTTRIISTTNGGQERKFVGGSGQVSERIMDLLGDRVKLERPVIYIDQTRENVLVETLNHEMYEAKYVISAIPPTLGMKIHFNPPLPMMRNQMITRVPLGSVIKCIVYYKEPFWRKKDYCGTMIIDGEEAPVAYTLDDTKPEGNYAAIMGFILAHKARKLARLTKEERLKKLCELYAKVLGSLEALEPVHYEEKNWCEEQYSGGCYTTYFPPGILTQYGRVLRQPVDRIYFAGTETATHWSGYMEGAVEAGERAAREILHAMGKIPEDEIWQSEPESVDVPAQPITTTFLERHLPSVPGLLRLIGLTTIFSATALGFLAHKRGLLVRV
# assay.summary: biochemical
# Assay type: biochemical
# assay.setup: inhibition kinetics without preincubation, kynuramine substrate
measurement.label: Ki (nM)

[
  {
    "entry.smiles": "N#Cc1ccc(-c2ccc(/C=N/c3ccc(O)cc3Cl)o2)cc1",
    "measurement.label": "Ki",
    "unit.info": "nM",
    "obs.value": 500
  }
]

----------
# target.or.system: hMAO B (Homo sapiens, UniProt P27338)
# Construct: purchased Sigma Aldrich
# Sequence (P27338 1-520): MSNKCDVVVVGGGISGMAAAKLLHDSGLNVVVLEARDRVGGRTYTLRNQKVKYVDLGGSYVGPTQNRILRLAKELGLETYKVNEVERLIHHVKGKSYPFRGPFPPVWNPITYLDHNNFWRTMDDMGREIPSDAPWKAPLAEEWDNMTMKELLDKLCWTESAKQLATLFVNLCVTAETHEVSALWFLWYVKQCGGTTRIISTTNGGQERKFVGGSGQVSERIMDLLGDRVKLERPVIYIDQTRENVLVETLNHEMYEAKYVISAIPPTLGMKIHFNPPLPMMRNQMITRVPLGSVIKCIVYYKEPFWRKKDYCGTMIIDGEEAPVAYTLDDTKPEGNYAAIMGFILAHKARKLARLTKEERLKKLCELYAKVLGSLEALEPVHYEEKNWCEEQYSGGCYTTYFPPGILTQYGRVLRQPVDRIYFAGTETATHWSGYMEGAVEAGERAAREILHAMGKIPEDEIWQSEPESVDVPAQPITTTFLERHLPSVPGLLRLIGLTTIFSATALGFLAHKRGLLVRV
# assay.summary: biochemical
# Type: biochemical
# assay.setup: read-out: % inhibition at 10 μM hMAO B
The following compounds are listed with their measured inhibition at 10 µM values.

[
  {
    "compound": "N#Cc1ccc(-c2ccc(/C=N/Nc3ccc(S(N)(=O)=O)cc3)o2)cc1 [Compound 12]",
    "unit.info": "%",
    "inhibition at 10 µM": 28
  },
  {
    "compound": "CN1CCN(N=Cc2ccco2)CC1 [Compound 16]",
    "unit.info": "%",
    "inhibition at 10 µM": 13
  },
  {
    "compound": "CS(=O)(=O)c1ccc(NN=Cc2ccc(-c3ccc(C#N)cc3)o2)cc1 [Compound 11]",
    "unit.info": "%",
    "inhibition at 10 µM": 28
  },
  {
    "compound": "N#Cc1ccc(-c2ccc(/C=N/N3CC(=O)NC3=O)o2)cc1 [Compound 7]",
    "unit.info": "%",
    "inhibition at 10 µM": 50
  }
]
